Tested on: MDA-MB-453
Experiment: drug sensitivity score (DSS), in combination with BLU9931 (DSS (weighted AUC score)); higher = more sensitive (stronger viability decrease); extreme values may be limits of the assay
Conditions: BLU9931 100 nM; 72 h
Classify as follows. Reported drug sensitivity score greater than or equal to 0.6: met. Reported drug sensitivity score below: not met.

Compound | System under test | Label class
COC(=O)c1ccc([C@H]2c3[nH]c4ccccc4c3C[C@H](C(=O)OC)N2C(=O)CCl)cc1 [RSL3] | MDA-MB-453 | met
CC(=O)O[C@@]12CO[C@@H]1C[C@H](O)[C@@]1(C)C(=O)[C@H](O)C3=C(C)[C@@H](OC(=O)[C@H](O)[C@@H](NC(=O)OC(C)(C)C)c4ccccc4)C[C@@](O)([C@@H](OC(=O)c4ccccc4)[C@H]21)C3(C)C [Docetaxel] | MDA-MB-453 | met
Cc1cc(Nc2cc(N3CCN(C)CC3)nc(Sc3ccc(NC(=O)C4CC4)cc3)n2)n[nH]1 [Tozasertib] | MDA-MB-453 | not met
Nc1ncnc2c1nc(Cl)n2[C@@H]1O[C@H](CO)[C@@H](O)[C@H]1O [8-chloro-adenosine] | MDA-MB-453 | met
CNC(=O)c1ccc(N2C(=S)N(c3ccc(C#N)c(C(F)(F)F)c3)C(=O)C2(C)C)cc1F [Enzalutamide] | MDA-MB-453 | not met
COc1cc(Nc2ncc(F)c(Nc3ccc4c(n3)NC(=O)C(C)(C)O4)n2)cc(OC)c1OC [Tamatinib] | MDA-MB-453 | not met

* * *

Listed here: items and their measured drug sensitivity score.
Tested on: MDA-MB-453
Experiment: drug sensitivity score (DSS), single agent (DSS (weighted AUC score)); higher = more sensitive (stronger viability decrease); extreme values may be limits of the assay
Settings: BLU9931 0 nM; 72 h

Molecule | System under test | drug sensitivity score
COc1cc2nccc(Oc3ccc(NC(=O)Nc4cc(C)on4)c(Cl)c3)c2cc1OC | MDA-MB-453 | 2.8
Cc1cc(Nc2cc(N3CCN(C)CC3)nc(/C=C/c3ccccc3)n2)n[nH]1 | MDA-MB-453 | 7.1
COc1cc(OC)cc(N(CCNC(C)C)c2ccc3ncc(-c4cnn(C)c4)nc3c2)c1 | MDA-MB-453 | 4.3
COc1cc2c(cc1OC(C)C)[C@H](c1ccc(Cl)cc1)N(c1ccc(N(C)C[C@H]3CC[C@H](N4CCN(C)C(=O)C4)CC3)cc1)C(=O)C2 | MDA-MB-453 | 7.9
Cc1cc2c(C(=O)NC[C@H](C)c3ccccc3)c(O)c(O)cc2c(O)c1-c1c(C)cc2c(C(=O)NC[C@H](C)c3ccccc3)c(O)c(O)cc2c1O | MDA-MB-453 | 12.6
CCN(CC)CCCC(C)Nc1ccnc2cc(Cl)ccc12 (stereo not drawn) | MDA-MB-453 | 7.6
CCS(=O)(=O)N1CCN(c2ccc(Nc3ncc(C(N)=O)c(NC4CC4)n3)cc2)CC1 | MDA-MB-453 | 4.4
COc1cccc(-c2ccc(NC(=O)C3=C(C(=O)O)CCC3)c(F)c2)c1 | MDA-MB-453 | 0.4

* * *

Test system: MDA-MB-453
Experiment: drug sensitivity score (DSS), in combination with BLU9931 (DSS (weighted AUC score)); higher = more sensitive (stronger viability decrease); extreme values may be limits of the assay
Conditions: BLU9931 100 nM; 72 h
Listed here: items and their measured drug sensitivity score.
Assay readout: drug sensitivity score

Compound | Obs value
O[C@H]1CC[C@H](Nc2ncc3nc(Nc4c(F)cc(F)cc4F)n([C@H]4CCOC4)c3n2)CC1 [Tanzisertib] | 0
CCc1cnn2c(NCc3ccc[n+]([O-])c3)cc(N3CCCC[C@H]3CCO)nc12 [Dinaciclib] | 21.5
C[C@]1(c2nc3c(C(N)=O)cccc3[nH]2)CCCN1 [Veliparib] | 2.9
Cc1ccc(F)c(NC(=O)Nc2ccc(-c3cccc4[nH]nc(N)c34)cc2)c1 [Linifanib] | 0
CN(CC(=O)N(Cc1ccc(C2CCCCC2)cc1)c1ccc(C(=O)O)cc1)S(=O)(=O)c1c(F)c(F)c(F)c(F)c1F [SH-4-54] | 7.4
CN(C)C1CCN(C(=O)c2ccc(NC(=O)Nc3ccc(-c4nc(N5CCOCC5)nc(N5CCOCC5)n4)cc3)cc2)CC1 [Gedatolisib] | 23.7
CN1CCC(COc2cnc(-c3cccc(Cn4nc(-c5cccc(C#N)c5)ccc4=O)c3)nc2)CC1 [Tepotinib] | 0
Cc1cc(Nc2cc(CN3CCOCC3)c3nc(C)c(Cc4ccc(Cl)cc4F)n3n2)n[nH]1 [Gandotinib] | 1.2

* * *

System: MDA-MB-453
Test: drug sensitivity score (DSS), in combination with BLU9931 (DSS (weighted AUC score)); higher = more sensitive (stronger viability decrease); extreme values may be limits of the assay
Settings: BLU9931 100 nM; 72 h
Classify as follows. Reported drug sensitivity score greater than or equal to 5: True. Reported drug sensitivity score below: False.

Compound | Label class
COc1ccc2[nH]cc(/C=C3\C(=O)Nc4ccc(NC(=O)CCN5CCCCC5)cc43)c2c1 | False
CCn1cc(-c2ccnc3[nH]c(-c4cccc(CN(C)C)c4)cc23)c(-c2ccc(NC(=O)N(C)C)cc2)n1 | False
C[C@@H](Oc1cc(-c2cnn(C3CCNCC3)c2)cnc1N)c1c(Cl)ccc(F)c1Cl [Crizotinib] | False
FC(F)(F)c1ccc(CNc2ccc(Cc3c[nH]c4ncc(Cl)cc34)cn2)cn1 [Pexidartinib] | False
COc1cc2nccc(Oc3ccc(NC(=O)C4(C(=O)Nc5ccc(F)cc5)CC4)cc3)c2cc1OC [Cabozantinib] | False
Cc1[nH]c2ccccc2c1CCNCc1ccc(/C=C/C(=O)NO)cc1 [Panobinostat] | True
Cc1ccc(C(=O)N(CCCN)[C@@H](c2oc3cc(Cl)ccc3c(=O)c2Cc2ccccc2)C(C)C)cc1 | False
CCN(CC)CCOc1ccc(C(=C(Cl)c2ccccc2)c2ccccc2)cc1 [Clomifene] | False
Cc1sc2c(c1C)C(c1ccc(Cl)cc1)=N[C@@H](CC(=O)Nc1ccc(OCCOCCOCCOCCNc3cccc4c3C(=O)N(C3CCC(=O)NC3=O)C4=O)cc1)c1nnc(C)n1-2 (some centres undefined) [ARV-825] | True
CCN(CC)CCNC(=O)c1c(C)[nH]c(/C=C2\C(=O)Nc3ccc(-c4csc(-c5ccccc5)n4)cc32)c1C [Amcasertib] | False
Cc1ncc(Cl)cc1NCc1ccc(C(=O)N[C@@H](CC2CCCC2)C(=O)NC2CC2)s1 | False
C=CCN(/C=C1/C(=O)O[C@H](COC)[C@@]2(C)C1=C(O)C(=O)C1=C2[C@H](OC(C)=O)C[C@]2(C)C(=O)CC[C@@H]12)CC=C [Sonolisib] | False
COc1cc(OC2CCN(C)CC2)ccc1Nc1ncc2c(n1)n(C1CCCC1)c(=O)n2C [AZ 3146] | False
C[C@@H]1CN(Cc2ccc(F)cc2)[C@@H](C)CN1C(=O)c1cc2c(C(=O)C(=O)N(C)C)cn(C)c2cc1Cl [Talmapimod] | False
CC[C@@H]1[C@H](F)C(=O)N[C@@H]1COc1nccc2cc(C(N)=O)c(OC)cc12 | False
CC(=O)O[C@H]1C(=O)[C@@]2(C)[C@H]([C@H](OC(=O)c3ccccc3)[C@]3(O)C[C@H](OC(=O)[C@H](O)[C@@H](NC(=O)c4ccccc4)c4ccccc4)C(C)=C1C3(C)C)[C@]1(OC(C)=O)CO[C@@H]1C[C@@H]2O [Paclitaxel] | True
Cc1ncc(-c2ccnc(Nc3ccc(S(C)(=O)=O)cc3)n2)n1C(C)C [AZD-5438] | True
COc1cc2ncnc(Nc3ccc(F)c(Cl)c3)c2cc1OCCCN1CCOCC1 [Gefitinib] | True
O=C1CCc2c(Oc3ccc4c(c3)[C@@H]3[C@H](O4)[C@H]3c3nc4cc(C(F)(F)F)ccc4[nH]3)ccnc2N1 [BGB-283] | False
CN(C)CCCOc1ccc(-c2ccc3ncc4c(c3c2)n(C2CCOCC2)c(=O)n4C)cn1 [AZD0156] | False
Cn1cc(C2=Nc3cc(NC(=O)C(N)C4CCCCC4)cc4c3C2=CNNC4=O)cn1 (centres undefined) | True
N#Cc1ccc(C(c2ccc(C#N)cc2)n2cncn2)cc1 [Letrozole] | False
CN1CCN(C2CCC(n3cc(-c4ccc(Oc5ccccc5)cc4)c4c(N)ncnc43)CC2)CC1 (centres undefined) | True
CO[C@H]1C(=O)[C@]2(C)[C@@H](OC)C[C@H]3OC[C@@]3(OC(C)=O)[C@H]2[C@H](OC(=O)c2ccccc2)[C@]2(O)C[C@H](OC(=O)[C@H](O)[C@@H](NC(=O)OC(C)(C)C)c3ccccc3)C(C)=C1C2(C)C [Cabazitaxel] | True
CNC(=O)c1cccc2cc(Oc3ccnc4cc(OCC5(N)CC5)c(OC)cc34)ccc12 [Lucitanib] | False
O=c1ncn2nc(Sc3ccc(F)cc3F)ccc2c1-c1c(Cl)cccc1Cl [Neflamapimod] | False
Cc1cc(OCc2nnc(SC3CCCC3)n2-c2cccnc2)ccc1-c1ccc(S(C)(=O)=O)cc1 [NMS-873] | True

Reference source for all entries: the supplement of paper PMC7224384
